test: T. gondii ME49Luc in HeLa cells, luciferase assay, 72 h, no IFN-y (AID 1259421); settings: stronger effect = lower value, concentration not given here
Out of some 6,400 compounds screened, about 610 (9.5%) were called active. The entries come from a sample that favours actives as a whole.
Below is a list of entries, each paired with its recorded activity change, negative = inhibition value.
// units = %; emit number, no label

Prompt line: // returns reported activity change, negative = inhibition for input "N[C@@H]1[C@@H](O)[C@H](O)[C@@H](CO)O[C@H]1O"
Response line: 1.35

Prompt line: // returns reported activity change, negative = inhibition for input "CC(=O)Nc1cccc(-n2c(=O)n(C3CC3)c(=O)c3c(Nc4ccc(I)cc4F)n(C)c(=O)c(C)c32)c1"
Response line: 19.3

Prompt line: // returns reported activity change, negative = inhibition for input "N=[N+]=CC(=O)CC[C@H](N)C(=O)O"
Response line: 0.432

Prompt line: // returns reported activity change, negative = inhibition for input "O=C(C[C@H]1NCCC[C@@H]1O)Cn1cnc2cc(Br)c(Cl)cc2c1=O"
Response line: -86

Prompt line: // returns reported activity change, negative = inhibition for input "O=C(Nc1cc(Cl)cc(Cl)c1O)c1c(O)c(Cl)cc(Cl)c1Cl"
Response line: 1.68

* * *

assay: T. gondii ME49Luc in HeLa cells, luciferase assay, 72 h, no IFN-y (AID 1259421); details: concentration not given here
Hit rate of the full screen: of about 6,400 compounds, about 610 (9.5%) were called active. Rule as the data show it: active = activity change below about -70%; inconclusive = no clear call, values can overlap the other calls; inactive = above that. The sample as a whole holds a higher share of actives than the screen did.
Write down the outcome that applies. Available outcomes: active, inactive

# molecule, class name
records = [
    ("CN(C)C/C=C/C(=O)Nc1cc2c(Nc3ccc(F)c(Cl)c3)ncnc2cc1O[C@H]1CCOC1", "active"),
    ("N[C@](CC1c2ccccc2Oc2ccccc21)(C(=O)O)[C@H]1C[C@@H]1C(=O)O", "inactive"),
    ("CC(C)=CCc1c(O)cc2oc(C)cc(=O)c2c1O", "inactive"),
    ("COc1cc2ncnc(Nc3ccc(F)c(Cl)c3)c2cc1NC(=O)/C=C/CN1CCCCC1", "active"),
    ("OCC1OC2OC3C(CO)OC(OC4C(CO)OC(OC5C(CO)OC(OC6C(CO)OC(OC7C(CO)OC(OC8C(CO)OC(OC1C(O)C2O)C(O)C8O)C(O)C7O)C(O)C6O)C(O)C5O)C(O)C4O)C(O)C3O (configuration not stated)", "inactive"),
    ("C=C1C(=C/C=C2\\CCC[C@]3(C)[C@@H]([C@H](C)/C=C/[C@@H](O)C4CC4)CC[C@@H]23)C[C@@H](O)C[C@@H]1O", "inactive"),
    ("c1ccc(-c2nn3c(c2-c2ccnc4cc(OCCN5CCOCC5)ccc24)CCC3)nc1", "inactive"),
    ("COc1c(O)cc2oc3cc(O)c(CC=C(C)C)c(O)c3c(=O)c2c1CC=C(C)C", "active"),
]

Note: attention shifts to another entry.
Prompt line: Per the records of this test, what outcome belongs to COC(=O)C1=C(C)NC(C)=C(C(=O)OC/C=C/c2ccccc2)C1c1cccc([N+](=O)[O-])c1 (configuration not stated) ?
Response line: inactive

* * *

test: T. gondii ME49Luc in HeLa cells, luciferase assay, 72 h, no IFN-y (AID 1259421); conditions: stronger effect = lower value, concentration not given here
The campaign covered roughly 6,400 compounds. About 610 (9.5%) were called active. The sample holds actives, similar compounds and a random draw of the others, so the mix is not that of the screen.
property measured: activity change, negative = inhibition (%)
// units = %; emit number, no label

Previously resolved entries follow.
# compound, activity change, negative = inhibition, %
records = [
    ("CC(=O)O[C@]1(C(C)=O)CCC2C3C=C(C)C4=CC(=O)CC[C@]4(C)C3CC[C@@]21C (stereo partly drawn)", 9.66),
    ("OCCN1C[C@@H](O)[C@@H](O)C(O)C1CO (stereo partly drawn)", 10.9),
    ("COc1ccccc1N1CCN(CC2CN3C(=O)N(C)c4ccccc4C3=N2)CC1 (stereo not drawn)", 1.95),
    ("CO[C@H]1C[C@H](O[C@H]2[C@H](C)[C@@H](OC3O[C@H](C)C[C@H](N(C)C)[C@H]3OC(C)=O)[C@@H](C)C[C@]3(CO3)C(=O)[C@H](C)[C@@H](OC(C)=O)[C@@H](C)[C@@H](C)OC(=O)[C@@H]2C)O[C@@H](C)[C@@H]1OC(C)=O (stereo partly drawn)", 5.2),
    ("CC(C)C(=O)Nc1ccc([N+](=O)[O-])c(C(F)(F)F)c1", 12.9),
]

Prompt line: // returns reported activity change, negative = inhibition for input "O=C(Nc1ccc(Cl)cc1)Nc1ccc(Cl)c(C(F)(F)F)c1"
Response line: -76.9

Prompt line: // returns reported activity change, negative = inhibition for input "CC(C)(C)Cn1c(N)nc2ccc(-c3[nH]c(C(C)(C)C)nc3-c3ccc(F)cc3)nc21"
Response line: -83.7

Prompt line: // returns reported activity change, negative = inhibition for input "C=CC(=O)Nc1cccc(Nc2nc(Nc3ccc(Oc4ccnc(C(=O)NC)c4)cc3)ncc2F)c1"
Response line: -38.8

Prompt line: // returns reported activity change, negative = inhibition for input "NC(=O)Nc1sc(-c2ccc(F)cc2)cc1C(N)=O"
Response line: 12.6

Prompt line: // returns reported activity change, negative = inhibition for input CCC1OC(=O)[C@H](C)C(=O)[C@H](C)[C@@H](OC2O[C@H](C)C[C@H](N(C)C)[C@H]2O)[C@](C)(OC)C[C@@H](C)C(=O)[C@@H](C)[C@@H]2N(CCCCn3cnc(-c4cccnc4)c3)C(=O)O[C@]12C (stereo partly drawn)
Response line: -0.624

* * *

test: T. gondii ME49Luc in HeLa cells, luciferase assay, 72 h, no IFN-y (AID 1259421); settings: stronger effect = lower value, concentration not given here
Screen size: about 6,400 compounds; about 610 (9.5%) were called active. This is one part of a sample in which actives are shown more often than they occur.
property measured: activity change, negative = inhibition (%)
// units = %; emit number, no label

Previously resolved entries follow.
# compound, property measured, observed
rows = [
    ("COc1ccc(NS(=O)(=O)c2ccc(N=Nc3ccc(O)c(C(=O)O)c3)cc2)nn1", "activity change, negative = inhibition", 5.08),
    ("N[C@H](Cc1cnc[nH]1)C(=O)O", "activity change, negative = inhibition", 2.37),
    ("Nc1c(S(=O)(=O)O)cc(Nc2cccc3ccccc23)c2c1C(=O)c1ccccc1C2=O", "activity change, negative = inhibition", 5.63),
    ("c1cnc2cc3c(cc2n1)C1CNCC3C1", "activity change, negative = inhibition", 5.57),
    ("CCOC(=O)c1c(C)[nH]c2ccc3c(c12)CN1CCc2cc(OC)ccc2C1O3 (stereo unspecified)", "activity change, negative = inhibition", 5.91),
]

Prompt line: // returns reported activity change, negative = inhibition for input "CCCCCCNC(=O)n1cc(F)c(=O)[nH]c1=O"
Response line: -97.3

Prompt line: // returns reported activity change, negative = inhibition for input "CCC[C@@H]1C[C@@H](C(=O)N[C@@H]([C@H]2O[C@H](SC)[C@H](O)[C@@H](O)[C@@H]2O)[C@@H](C)O)N(C)C1"
Response line: 0.0317

Prompt line: // returns reported activity change, negative = inhibition for input "O=c1[nH]c(=O)c2[nH]c(=O)[nH]c2[nH]1"
Response line: 3.85

Prompt line: // returns reported activity change, negative = inhibition for input COc1cccc(OC)c1-c1cc(C(=O)NC2(C(=O)O)C3CC4CC(C3)CC2C4)nn1-c1ccc(C(=O)N(C)CCCN(C)C)cc1C(C)C (stereo unspecified)
Response line: -1.72

Prompt line: // returns reported activity change, negative = inhibition for input "O=c1cc(-c2ccc(O)cc2)oc2ccc(O)cc12"
Response line: -46.2

Prompt line: // returns reported activity change, negative = inhibition for input "COc1nccc(-c2c(-c3ccc(F)cc3)ncn2C2CCNCC2)n1"
Response line: -64.9

* * *

experiment: T. gondii ME49Luc in HeLa cells, luciferase assay, 72 h, no IFN-y (AID 1259421); conditions: concentration not given here
Out of some 6,400 compounds screened, about 610 (9.5%) were called active. Rule as the data show it: active = activity change below about -70%; inconclusive = no clear call, values can overlap the other calls; inactive = above that. The full list was thinned out, with actives kept by preference.
Write down the outcome that applies. Available outcomes: active, inactive

Take a look at these entries with their results.
# molecule, class name
measured = [
    ("C[C@]12CCC(=O)C=C1CCC1C2[C@@H](O)C[C@@]2(C)C1CC[C@]2(O)C(=O)CO (stereo partly drawn)", "inactive"),
    ("CCC(C)(C)C(=O)OC1CC(C)C=C2C=CC(C)C(CCC3CC(O)CC(=O)O3)C21 (stereo not drawn)", "inactive"),
    ("C[C@H](Cn1cnc2c(N)ncnc21)OCP(=O)(O)O", "inactive"),
    ("Cc1occc(=O)c1O", "inactive"),
    ("O[C@H]([C@H](O)[C@@H]1CO1)[C@H]1CO1", "inactive"),
]

Prompt line: Per the records of this test, what outcome belongs to "Cn1cc(C(=O)[C@@H]2CCc3nc[nH]c3C2)c2ccccc21" ?
Response line: inactive

Prompt line: Per the records of this test, what outcome belongs to CC1(c2ccccc2)OC(C(=O)O)=CC1=O (stereo not drawn) ?
Response line: inactive
